TARGET_OR_TEST_SYSTEM: Hco-ACC-2 F200W (Haemonchus contortus, UniProt A0A219KWM7, F200W)
ASSAY_INFO: Two-electrode voltage clamp of Hco-ACC-2 F200W mutant in Xenopus laevis oocytes
Structures can show the parent of a compound that is named as a salt.
Define the label as Y when EC50 is strictly less than 600 µM and as N in all remaining cases.

// below: answered compounds
Just wondering, is EC50 of CN1CCCN=C1/C=C/c1cccs1 [Pyrantel, Pyrantel Citrate Salt] below 600 µM?
Y

# strict comparison: is reported EC50 < 600 µM? input = CC(=O)OC(C)C[N+](C)(C)C (stereo not drawn) [Methacholine, Acetyl-β-methylcholine Chloride]
N

Does this compound meet the criterion EC50 < 600 µM? C[N+](C)(C)CCO [Choline, Choline Chloride]
N

# TODO verify EC50 < 600 µM strictly for this compound: C[N+](C)(C)CCOC(N)=O [Carbachol, Carbamoylcholine Chloride]
Y

Please examine the following record next.
is_below(EC50, 600 µM) for CC(C[N+](C)(C)C)OC(N)=O (stereo not drawn) [Urecholine, Carbamyl-β-methylcholine chloride] ?
N
